# Test system: sunflower (Helianthus annuus L.) seeds
# method description: Phytotest 1: phytotoxicity, seed germination and root growth
# Type: in vivo
# condition context: 50 µg/mL; versus water–ethanol 0.5% (v/v) control; <90% inhibition, 90–110% no effect, >110% stimulation
For each of the compounds below, state its Germination index (GI), sunflower, test 1.
Answers are plain numbers, in %.

// worked examples, Germination index (GI), sunflower, test 1 included
CC(C)(C)c1cc(/C=N/NC(=O)c2ccc(O)cc2)c(O)c(C(C)(C)C)c1 82
O=C(N/N=C/c1cc(O)ccc1O)c1ccc(O)cc1 87

With those in mind, consider the next compound.
Request: Return Germination index (GI), sunflower, test 1 (reported value) for this compound: Cc1cc(/C=N/NC(=O)c2ccc(O)cc2)c(O)c(C(C)(C)C)c1
Response: 67
